Numbers sourced from ChEMBL document CHEMBL1201862.

Target: Heat shock factor protein 1 (Mus musculus, UniProt P38532)
Sequence (P38532 whole entry): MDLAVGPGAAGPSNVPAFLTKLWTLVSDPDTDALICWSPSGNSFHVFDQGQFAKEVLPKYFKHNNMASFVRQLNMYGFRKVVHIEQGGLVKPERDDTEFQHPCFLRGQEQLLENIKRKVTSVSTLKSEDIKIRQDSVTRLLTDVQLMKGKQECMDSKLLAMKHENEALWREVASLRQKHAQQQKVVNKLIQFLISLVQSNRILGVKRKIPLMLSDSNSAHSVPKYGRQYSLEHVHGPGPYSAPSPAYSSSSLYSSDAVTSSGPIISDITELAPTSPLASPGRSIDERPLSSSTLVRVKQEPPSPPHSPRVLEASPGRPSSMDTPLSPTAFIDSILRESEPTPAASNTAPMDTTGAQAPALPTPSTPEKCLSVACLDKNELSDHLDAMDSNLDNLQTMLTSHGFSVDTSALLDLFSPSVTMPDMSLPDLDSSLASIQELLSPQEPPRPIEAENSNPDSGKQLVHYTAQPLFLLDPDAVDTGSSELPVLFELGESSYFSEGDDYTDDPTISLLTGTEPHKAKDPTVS
Experiment: HSF1 potentiators in luciferase reporter cells, confirmation, cell-based, NIH3T3, luminescence, dose retest (AID 435004);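 note: stress induced by proteasome inhibitor MG132 added 30 min after compound; luciferase reporter driven by HSF1 response element in NIH3T3 cells; actives raise luminescence as potentiators of the MG132 stress response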
Format: functional
The source made the active and inactive calls. Cut-off read from the data, not from the text of the source: actives have a measured EC50 and inactives only a lower limit.
Classes used: active, inactive

| structure | class_assignment |
| --- | --- |
| COc1ccc(NS(=O)(=O)c2ccc3ccccc3c2)c2ncccc12 | active |
| COc1cc(/C=C/C(=O)N2C(=O)c3cccc(N)c3C2=O)cc(OC)c1OC | active |
| Nc1ccc(Sc2cnn(-c3ccccc3)c(=O)c2Cl)cc1 | inactive |
| CCCSc1nnc(Sc2nnnn2-c2ccccc2)s1 | active |
| COc1ccc(-n2cc(CNCc3cccnc3)c(-c3cccc(F)c3)n2)cc1 | inactive |
